Ki for Coagulation factor X (Homo sapiens, UniProt P00742), merged from several publications.
test_readout: Ki (nM)

[A] CC1CCN(C(=O)[C@H](Cc2cccc(C(=N)N)c2)NS(=O)(=O)c2cccc(NC(=O)CCN)c2)CC1
[B] CN(C)Cc1ccccc1NC(=O)OCC(Oc1cccc2sc(C(=N)N)cc12)c1ccccc1 (stereo not given)
[C] O=C(O)CN1CCCCC1CCNc1nccc2oc(Cc3cc(Cl)ccc3-n3cncn3)nc12 (stereo not given)
[D] CCOC(=O)C1CCN(c2ccc(N3C[C@@H](CNC(=O)c4cnc(N)s4)OC3=O)cc2)CC1.O=C(O)C(F)(F)F
[E] Cc1c(F)c(Oc2cccc(C(=N)N)c2)nc(Oc2cccc(C(F)(F)F)c2)c1F
Order the entries above from lowest to highest Ki. List the labels in the requested order.
C, B, E, A, D
